# PROTOCOL_NOTES: Plasma concentration in rats after oral administration (HPLC)
# RUN_CONDITIONS: rat, plasma, po, 100 mg/kg
Structures can show the parent of a compound that is named as a salt.
Overview of reported concentration at 0.25 h across a group of compounds:
All answers are understood in ng/mL, so give the number only.

INSERT INTO assay_data (compound, measured_metric, numeric_result) VALUES
  ('N=C(N)c1cccc(C[C@H](NS(=O)(=O)c2ccc3ccccc3c2)C(=O)N2CCC[C@@H]2C(=O)O)c1 [Compound 123, hydrochloride]', 'concentration at 0.25 h', 230),
  ('NCc1cccc(CC(NS(=O)(=O)c2ccc3ccccc3c2)C(=O)N2CCC(C(=O)O)CC2)c1 (racemic)', 'concentration at 0.25 h', 996),
  ('N=C(N)c1cccc(CC(NS(=O)(=O)c2ccc3ccccc3c2)C(=O)N2CCC(C(=O)O)CC2)c1 (racemic)', 'concentration at 0.25 h', 870),
  ('N=C(N)c1cccc(CC(NS(=O)(=O)c2ccc3ccccc3c2)C(=O)N2CCCCC2C(=O)O)c1 (racemic)', 'concentration at 0.25 h', 133);

Q: If you can, please state the reported concentration at 0.25 h value of N=C(N)c1cccc(CC(NS(=O)(=O)c2ccc3ccccc3c2)C(=O)N2Cc3ccccc3CC2C(=O)O)c1 (racemic) .
Ans: 188

Q: If you can, please state the reported concentration at 0.25 h value of N=C(NO)c1cccc(CC(NS(=O)(=O)c2ccc3ccccc3c2)C(=O)N2Cc3ccccc3CC2C(=O)O)c1 (racemic) [Compound 190, hydroiodide] .
Ans: 481
